target: Dual specificity protein kinase CLK1 (Homo sapiens); experiment: Inhibition of recombinant human GST-tagged CLK1 catalytic domain (129 to 484 residues) expressed in Escherichia coli by Z'-LYTE assay
Sequence (P49759 whole entry, the tested form may be a part): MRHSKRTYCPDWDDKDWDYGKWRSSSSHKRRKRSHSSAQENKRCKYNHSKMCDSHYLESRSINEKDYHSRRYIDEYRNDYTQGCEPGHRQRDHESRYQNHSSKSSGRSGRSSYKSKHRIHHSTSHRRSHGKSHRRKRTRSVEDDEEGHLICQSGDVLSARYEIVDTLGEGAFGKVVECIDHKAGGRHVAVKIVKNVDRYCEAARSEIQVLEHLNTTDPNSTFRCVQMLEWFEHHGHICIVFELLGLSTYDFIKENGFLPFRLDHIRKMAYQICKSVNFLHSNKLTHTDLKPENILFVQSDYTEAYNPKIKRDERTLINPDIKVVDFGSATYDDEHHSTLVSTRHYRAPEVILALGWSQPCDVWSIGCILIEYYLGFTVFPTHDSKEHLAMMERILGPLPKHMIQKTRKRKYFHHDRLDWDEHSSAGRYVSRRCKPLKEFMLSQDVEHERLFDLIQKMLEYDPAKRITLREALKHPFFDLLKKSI
Property Name: IC50 (µM)

INSERT INTO measurements (compound, unit_abbrev, endpoint_value) VALUES
  ('Cc1n[nH]cc1-c1cc2nc([C@@H]3CCCCN3)[nH]c(=O)c2s1.Cl.Cl', 'µM', 0.31);

====

Measured pIC50 accompanies every entry in the list below.
molecular target: Cell division cycle 7-related protein kinase (Homo sapiens); test: Inhibition of CDC7 in human HeLa cells assessed as inhibition of MCM2 phosphorylation at Ser40 residue in human HeLa cells after 7 hrs by Western blot analysis
Sequence (O00311 whole entry): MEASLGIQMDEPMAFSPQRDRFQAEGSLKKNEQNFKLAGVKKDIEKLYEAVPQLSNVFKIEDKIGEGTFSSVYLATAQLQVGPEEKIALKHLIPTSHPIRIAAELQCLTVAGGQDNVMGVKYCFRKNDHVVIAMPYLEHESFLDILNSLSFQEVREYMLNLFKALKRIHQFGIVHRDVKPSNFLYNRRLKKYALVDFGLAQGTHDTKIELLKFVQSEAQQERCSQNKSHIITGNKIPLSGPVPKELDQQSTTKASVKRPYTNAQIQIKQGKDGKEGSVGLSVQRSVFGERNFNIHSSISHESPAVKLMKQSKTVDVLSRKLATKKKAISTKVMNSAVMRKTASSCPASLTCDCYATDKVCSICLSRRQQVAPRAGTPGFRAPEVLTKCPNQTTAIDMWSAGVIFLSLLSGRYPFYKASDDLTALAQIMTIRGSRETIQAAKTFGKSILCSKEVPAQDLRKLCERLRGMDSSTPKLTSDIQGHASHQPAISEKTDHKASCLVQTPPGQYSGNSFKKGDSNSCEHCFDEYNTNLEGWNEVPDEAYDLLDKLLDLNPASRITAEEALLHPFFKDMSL
pIC50: −log10 of the molar value.
Property Name: pIC50

INSERT INTO measurements (compound, endpoint_value) VALUES
  ('Cc1n[nH]cc1-c1cc2nc([C@@H]3CCCCN3)[nH]c(=O)c2s1.Cl.Cl', 7.44),
  ('O=c1[nH]c([C@@H]2CCCCN2)nc2cc(-c3c[nH]nc3C(F)(F)F)sc12', 7.39),
  ('Cc1n[nH]cc1-c1cc2nc(C34CC(CN3)C4)[nH]c(=O)c2s1', 6.89),
  ('Cc1[nH]ncc1-c1cc2nc([C@@H]3CC4CCN3CC4)[nH]c(=O)c2s1', 7.77);
